Target: recombinant homotrimeric HA A/Hong Kong/1073/99 H9N2 (Influenza A virus A/Hong Kong/1073/99 (H9N2))
Assay: protein microarray, purified IgG, trimeric HA
Settings: remark: other sources report otherwise
property: Trimeric HA Binding: RLU
Write the figure, then the unit, nothing else.

>>> measuredvalue("TCN-553 (5261_C18) (antibody, V domains shown) VH: QVQVVQSGTEVKKPGSSVKVSCQTSGGRFMSYAITWVRQAPGQGLEWMGGIVPVFGTANYAQKFQGRVTITTDDSTRTAYMELSSLRSEDTAVYYCGFRYGSGYGFDSWGQGTLVTVSS VL: EIVLTQSPGTLSLSPGERATLSCRASQSVSSSYLAWYQKKPGQAPRLLIYGASTRATGIPDRFTGSGSGTDFTLSISRLEPEDFAVYYCQHFGTSVFTFGGGTKVEIK")
"6690 RLU"

Okay, next one:
Task: Entry under review: TCN-523 (5248_A17) (antibody, V domains shown) VH: QVQLVQSGAEVKKPGSSVKVSCKASGGSFSNYAFSWVRQAPGQGLEWMGGTIPLLGTTNYAQKFQGRVTISADQFTSTAYMELGSLRSEDTAVYYCTRRKMTTAFDSWGQGTLVTVSS VL: QPVLTQPPSASASLGASVTLTCTLSSAYSNYKVDWYQQRPGKGPRFVMRVGTGGIVGSKGDGIPDRFSVLGSGLNRYLTIKNIQEEDESDYHCGADHGSGSNFVSPYVFGGGTKLTVL . Reported Trimeric HA Binding: RLU?
Output: 2130 RLU

Attribution: patent US20150086555A1
